tested on: A673/TR/shEF; assay: cell viability (LOESS-normalised, relative to median of negative controls) (log2 ratio); higher = more viable cells (less compound effect), active = hit call of the paper (over 3 MAD below the median); details: 2.8 µM; library screen: screen3; EWS-FLI1 expression: low (doxycycline-induced shRNA knockdown); treatment time: 72 h
Among all 3,200 compounds or so, about 300 (9.4%) showed activity. The entries come from a sample that favours actives as a whole.
hey, just use label 1 if measured cell viability (log2) is less than 0.02, otherwise label 0

compound	answer label
Nc1ccn([C@@H]2O[C@H](CO)[C@@H](O)C2(F)F)c(=O)n1	label 1
CC1(C)S[C@@H]2[C@H](NC(=O)[C@H](N)c3ccc(O)cc3)C(=O)N2[C@H]1C(=O)O	label 0
Nc1ccn([C@@H]2CS[C@H](CO)O2)c(=O)n1	label 0
Nc1ncn([C@H]2C[C@H](O)[C@@H](CO)O2)c(=O)n1	label 0
Cc1ccc(C(=O)Nc2ccc(CN3CCN(C)CC3)c(C(F)(F)F)c2)cc1C#Cc1cnc2cccnn12	label 0
CC(C)n1c(/C=C/C(O)CC(O)CC(=O)O)c(-c2ccc(F)cc2)c2ccccc21 (stereo unspecified)	label 1
Cn1cnc2c(F)c(Nc3ccc(Br)cc3Cl)c(C(=O)NOCCO)cc21	label 1
C[N+]1(C)C2CC(OC(=O)C(O)(c3cccs3)c3cccs3)CC1C1OC12 (stereo unspecified)	label 0
CC[C@]1(O)C[C@H]2CN(CCc3c([nH]c4ccccc34)[C@@](C(=O)OC)(c3cc4c(cc3OC)N(C=O)[C@H]3[C@@](O)(C(=O)OC)[C@H](OC(C)=O)[C@]5(CC)C=CCN6CC[C@]43[C@@H]65)C2)C1	label 1
Cc1nc(Nc2ncc(C(=O)Nc3c(C)cccc3Cl)s2)cc(N2CCN(CCO)CC2)n1	label 1
NC(=O)c1ncn([C@@H]2O[C@H](CO)[C@@H](O)[C@H]2O)c1N	label 0
CS(=O)(=O)c1ccc(C(=O)Nc2ccc(Cl)c(-c3ccccn3)c2)c(Cl)c1	label 1
CCCCCCCCCC(=O)N[C@@H](Cc1c[nH]c2ccccc12)C(=O)N[C@@H](CC(N)=O)C(=O)N[C@@H](CC(=O)O)C(=O)NC1C(=O)NCC(=O)N[C@@H](CCCN)C(=O)N[C@@H](CC(=O)O)C(=O)N[C@H](C)C(=O)N[C@@H](CC(=O)O)C(=O)NCC(=O)N[C@H](CO)C(=O)N[C@@H](C(C)CC(=O)O)C(=O)N[C@@H](CC(=O)c2ccccc2N)C(=O)OC1C (stereo partly specified)	label 1
C[C@@H](O)[C@H]1C(=O)N2C(C(=O)[O-])=C(SC3Cn4cnc[n+]4C3)[C@H](C)[C@H]12 (stereo partly specified)	label 0
Nc1ccn([C@@H]2O[C@H](CO)[C@@H](O)[C@@H]2O)c(=O)n1	label 1
